Reference source: patent US7375226B2

Target or test system: mGlyT-1b (Mus musculus)
Construct: host or cells: Flp-in-CHO
Sequence (P28571 1-651 isoform P28571-2): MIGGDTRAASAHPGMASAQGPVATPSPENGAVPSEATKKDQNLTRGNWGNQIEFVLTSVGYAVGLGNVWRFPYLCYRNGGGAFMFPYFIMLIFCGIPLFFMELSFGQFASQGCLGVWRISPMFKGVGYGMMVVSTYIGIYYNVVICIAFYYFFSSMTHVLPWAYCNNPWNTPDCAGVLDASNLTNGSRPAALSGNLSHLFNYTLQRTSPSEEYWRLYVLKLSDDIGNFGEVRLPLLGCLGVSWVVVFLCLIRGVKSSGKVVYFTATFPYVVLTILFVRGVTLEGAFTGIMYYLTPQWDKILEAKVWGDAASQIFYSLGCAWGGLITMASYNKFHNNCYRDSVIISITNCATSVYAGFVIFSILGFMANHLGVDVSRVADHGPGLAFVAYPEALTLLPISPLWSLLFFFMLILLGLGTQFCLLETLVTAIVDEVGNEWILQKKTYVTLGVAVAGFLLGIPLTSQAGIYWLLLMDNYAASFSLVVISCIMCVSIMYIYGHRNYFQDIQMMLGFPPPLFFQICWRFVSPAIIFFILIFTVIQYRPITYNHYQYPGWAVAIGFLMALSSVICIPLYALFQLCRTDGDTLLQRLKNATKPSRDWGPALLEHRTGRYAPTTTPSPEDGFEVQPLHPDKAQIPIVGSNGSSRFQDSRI
Experiment description: Glycine uptake inhibition assay (mGlyT-1b), [3H]-glycine uptake in Flp-in-CHO cells
Type: cell-based
Measurement context: Flp-in-CHO cells stably transfected with mGlyT1b cDNA; [3H]-glycine 60 nM and 25 μM non-radioactive glycine; read-out: IC50 (μM) at GlyT-1
Kindly state IC50 for each of the entries shown.
Hi, when you answer, please include the unit after the number. Thanks!

Quick request: IC50 for each listed item, please.
1. CC(C)Oc1ccc(S(C)(=O)=O)cc1C(=O)N1CCc2c(sc3ccc(Cl)cc23)C1 [Example 1]
2. CC(C)COc1ccc(S(C)(=O)=O)cc1C(=O)N1CCc2nc(-c3ccc(C(F)(F)F)cc3)sc2C1 [Example 23]
3. CS(=O)(=O)c1ccc(OC2CCCC2)c(C(=O)N2CCn3c(nc4ccccc43)C2)c1 [Example 15]
4. CC(C)Oc1ccc(S(C)(=O)=O)cc1C(=O)N1CCn2c(cc3cc(OC(F)(F)F)ccc32)C1 [Example 11]
5. C[C@H](Oc1ccc(S(C)(=O)=O)cc1C(=O)N1CCc2c(sc3ccc(Cl)cc23)C1)C(F)(F)F [Example 22]
6. CC(C)Oc1ccc(S(C)(=O)=O)cc1C(=O)N1CCn2c(cc3ccc(Cl)cc32)C1 [Example 9]
7. CC(C)Oc1ccc(S(C)(=O)=O)cc1C(=O)N1CCN2c3ccc(OC(F)(F)F)cc3CC2C1 (racemic) [Example 14]
8. CS(=O)(=O)c1ccc(OCC2CC2)c(C(=O)N2CCc3c(sc4ccc(Cl)cc34)C2)c1 [Example 20]

A:
1: 0.019 µM; 2: 0.341 µM; 3: 0.367 µM; 4: 0.088 µM; 5: 0.023 µM; 6: 0.134 µM; 7: 0.154 µM; 8: 0.026 µM
